Published IC50 for D(3) dopamine receptor (Homo sapiens, UniProt P35462), assembled from different documents, is shown next.
Result Type: IC50 (nM)

INSERT INTO results (structure_smiles, unit_of_measurement, modifier, result_number) VALUES
  ('COc1cc(NC(=O)c2ccc(-c3ccc(Cl)cc3)o2)cc(OC)c1', 'nM', '>', 10000),
  ('CN1CCN(C2=Nc3ccccc3Nc3ccc(OS(=O)(=O)C(F)(F)F)cc32)CC1', 'nM', '=', 53),
  ('Fc1cccc(Nc2nc(Cc3ccccc3)nc3c2CCNCC3)c1', 'nM', '=', 674),
  ('CC[C@H](C)[C@H](C(=O)O)N1C[C@H](CN2CCC(c3cc(Cc4ccc(OC(F)(F)F)cc4)nn3CC)CC2)[C@@H](c2cccc(F)c2)C1', 'nM', '=', 2700),
  ('CCCn1c(-c2ccccc2)cc(C(=O)NCCCN2CCN(c3cccc(Cl)c3Cl)CC2)c1C', 'nM', '=', 1070);
